Species: Homo sapiens
Experiment: Selectivity ratio of pIC50 for human nAChR alpha3/beta4 receptor to pIC50 for human nAChR alpha4/beta2 receptor
Reported Ratio pIC50 values are given for each entry in this list.
Write no unit; give the number alone.

What value of Ratio pIC50 has been reported for the following compound? O=C(OCC1CCCNC1)c1ccccc1-c1ccccc1 (single isomer, unassigned)
0.06

# Ratio pIC50 lookup, item CC1CC(=O)N(c2ccccc2C(=O)OCC2CCCN(CCOc3cccc4ccccc34)C2)C1=O (stereo not drawn)
0.61

Request the reported Ratio pIC50 associated with COc1ccc(CC2CC(=O)N(c3ccccc3C(=O)OCC3CCCN(CCCc4ccccc4)C3)C2=O)cc1 (stereo not drawn)
-0.13
